Kindly state pest or weed control at 125 g/ha for each of the entries shown.
tested on: blackgrass (Alopecurus myosuroides); test: Test C preemergence; assay type: in vivo; details: Alopecurus myosuroides, pre-emergence, 336 h; 125 g ai/ha, preemergence; scale 0 to 100; read-out: Plant response rating, Blackgrass
Respond with the bare value in %.

Query string: Returns the measured pest or weed control at 125 g/ha for the input molecule. Input: Fc1cccc(Oc2ncc(C(F)(F)F)cn2)c1Oc1ncc(Cl)cn1 [Compound 42]
Result string: 90

Query string: Which pest or weed control at 125 g/ha reading was recorded for the molecule Fc1cnc(Oc2c(Cl)cccc2Oc2ncc(Cl)cn2)nc1 [Compound 18] ?
Result string: 95

Query string: I'd like to know its pest or weed control at 125 g/ha. The molecule in question is Fc1cccc(Oc2ncc(Cl)cn2)c1Oc1ncc(C(F)(F)F)cn1 [Compound 43]
Result string: 95

Query string: Which pest or weed control at 125 g/ha is reported for this molecule? N#Cc1cccc(Oc2ncc(Br)cn2)c1Oc1ncc(Cl)cn1 [Compound 5]
Result string: 70

Query string: If you can, please state the reported pest or weed control at 125 g/ha value of N#Cc1cccc(Oc2ncc(Cl)cn2)c1Oc1ncc(Br)cn1 [Compound 4] .
Result string: 95

Query string: So what does the record say about pest or weed control at 125 g/ha for Fc1ccc(F)c(Oc2ncc(Cl)cn2)c1Oc1ncc(Cl)cn1 [Compound 34] ?
Result string: 70

Query string: Fill in the blank: the reported pest or weed control at 125 g/ha of Fc1cnc(Oc2c(F)ccc(F)c2Oc2ncc(F)cn2)nc1 [Compound 29] is ____.
Result string: 90

Query string: # pest or weed control at 125 g/ha lookup, item Fc1cnc(Oc2c(Br)cccc2Oc2ncc(Cl)cn2)nc1 [Compound 22]
Result string: 90

Query string: I'd like to know its pest or weed control at 125 g/ha. The molecule in question is N#Cc1cccc(Oc2ncc(C(F)(F)F)cn2)c1Oc1ncc(Cl)cn1 [Compound 39]
Result string: 90

* * *

test system: morningglory (Ipomoea coccinea); assay: Test C postemergence; type: in vivo; conditions: Ipomoea, post-emergence, 336 h; Postemergence, 62 g ai/ha, scale 0 to 100; read-out: Plant response rating, Morningglory
Returns one of fulfilled or not fulfilled; fulfilled when pest or weed control at 62 g/ha is >= 80%.

Query string: hey, is pest or weed control at 62 g/ha for this one >= 80%? Fc1cnc(Oc2c(F)cccc2Oc2ncc(Cl)cn2)nc1 [Compound 23]
Result string: not fulfilled

Query string: Answer whether pest or weed control at 62 g/ha of N#Cc1cccc(Oc2ncc(Cl)cn2)c1Oc1ccc(Cl)cc1 [Compound 36] is greater than or equal to 80%.
Result string: not fulfilled

Query string: Reported pest or weed control at 62 g/ha reaches at least 80% for N#Cc1cccc(Oc2ncc(Cl)cn2)c1Oc1ncc(C(F)(F)F)cn1 [Compound 38] ?
Result string: fulfilled

Query string: Check the entry N#Cc1cccc(Oc2ncc(Cl)cn2)c1Oc1ncc(Br)cn1 [Compound 4] : does pest or weed control at 62 g/ha equal or exceed 80%?
Result string: fulfilled

Query string: Is pest or weed control at 62 g/ha for N#Cc1cccc(Oc2ncc(C(F)(F)F)cn2)c1Oc1ncc(Cl)cn1 [Compound 39] at or above 80%?
Result string: fulfilled

Query string: Record Fc1cccc(Oc2ncc(Cl)cn2)c1Oc1ccc(Cl)nc1 [Compound 20] ; criterion: pest or weed control at 62 g/ha no lower than 80%. Met?
Result string: not fulfilled

Query string: Check this molecule for pest or weed control at 62 g/ha at or above 80%: Fc1cnc(Oc2c(F)ccc(F)c2Oc2ncc(F)cn2)nc1 [Compound 29]
Result string: fulfilled

Query string: # check: pest or weed control at 62 g/ha of N#Cc1cccc(Oc2ncc(Cl)cn2)c1Oc1cnc(Cl)cn1 [Compound 32] is greater than or equal to 80%
Result string: fulfilled

Query string: State whether the measured pest or weed control at 62 g/ha reaches 80%, counting equality as reaching it, for Fc1cnc(Oc2c(Br)cccc2Oc2ncc(Cl)cn2)nc1 [Compound 22]
Result string: not fulfilled

* * *

tested on: Italian ryegrass (Lolium multiflorum); assay: Test C preemergence; format: in vivo; conditions: Lolium multiflorum, pre-emergence, 336 h; Preemergence, 16 g ai/ha; scale 0 to 100; read-out: Plant response rating, Ryegrass, Italian
measured_endpoint: pest or weed control at 16 g/ha (%)
Report the value in % with no unit label.

Query string: What pest or weed control at 16 g/ha value was documented for this compound, N#Cc1cccc(Oc2ncc(Cl)cn2)c1Oc1ncc(Br)cn1 [Compound 4] ?
Result string: 0

Query string: Given Fc1cnc(Oc2c(F)ccc(F)c2Oc2ncc(F)cn2)nc1 [Compound 29] , state its recorded pest or weed control at 16 g/ha.
Result string: 30

Query string: // returns reported pest or weed control at 16 g/ha for input Fc1cccc(Oc2ncc(C(F)(F)F)cn2)c1Oc1ncc(Cl)cn1 [Compound 42]
Result string: 5

Query string: What does the record list as pest or weed control at 16 g/ha for Clc1cnc(Oc2cccc(Br)c2Oc2ncc(Cl)cn2)nc1 [Compound 19] ?
Result string: 5

* * *

system: pigweed (Amaranthus retroflexus); experiment: Test A postemergence; assay type: in vivo; conditions: Amaranthus retroflexus, post-emergence, 240 h, 31 g ai/ha, 0 to 100 scale, read-out: Plant response rating, Pigweed
measured_endpoint: pest or weed control at 31 g/ha (%)
All answers are understood in %, so give the number only.

Query string: Which pest or weed control at 31 g/ha reading was recorded for the compound Fc1cnc(Oc2c(F)ccc(F)c2Oc2ncc(Cl)cn2)nc1 ?
Result string: 50

Query string: Entry N#Cc1cccc(Oc2ncc(Cl)cn2)c1Oc1cccc(Cl)c1 has what pest or weed control at 31 g/ha?
Result string: 0

Query string: Could you share which pest or weed control at 31 g/ha value was measured for N#Cc1cccc(Oc2ncc(Cl)cn2)c1Oc1ccc(Cl)cc1 ?
Result string: 90

Query string: Look up pest or weed control at 31 g/ha: N#Cc1cccc(Oc2ncc(Br)cn2)c1Oc1ccc(Br)cn1
Result string: 10

Query string: Dear colleague, I am looking for the recorded pest or weed control at 31 g/ha of the following compound: N#Cc1cccc(Oc2ncc(Br)cn2)c1Oc1cccnc1
Result string: 10

* * *

tested on: wild mustard (Sinapis arvensis); assay: Test D preemergence; assay type: in vivo; conditions: 16 g ai/ha, scale 0 to 100
measured_endpoint: Plant response rating, Mustard, Wild
When you answer, write just the number.

Query string: Dear colleague, I am looking for the recorded Plant response rating, Mustard, Wild of the following compound: Fc1cnc(Oc2c(F)cccc2Oc2ncc(Cl)cn2)nc1
Result string: 98

Query string: Give the measured Plant response rating, Mustard, Wild of Fc1cccc(Oc2ncc(C(F)(F)F)cn2)c1Oc1ncc(Cl)cn1 .
Result string: 70

Query string: Plant response rating, Mustard, Wild for Fc1cnc(Oc2c(Br)cccc2Oc2ncc(Cl)cn2)nc1 ?
Result string: 20

Query string: May I ask what Plant response rating, Mustard, Wild has been recorded for FC(F)(F)c1cnc(Oc2c(Br)cccc2Oc2ncc(Cl)cn2)nc1 ?
Result string: 15

* * *

test system: kochia (Kochia scoparia); experiment: Test A postemergence; assay type: in vivo; conditions: Bassia scoparia, post-emergence, 240 h, 125 g ai/ha, 0 to 100 scale, read-out: Plant response rating, Kochia
Can you tell me pest or weed control at 125 g/ha for the items I'm about to list?
Write down the numeric answer in % and omit the unit.

Query string: Find pest or weed control at 125 g/ha (kochia (Kochia scoparia)) for the entry N#Cc1cccc(Oc2ncc(Cl)cn2)c1Oc1ccccc1Cl
Result string: 0

Query string: Recorded pest or weed control at 125 g/ha for FCc1cccc(Oc2ncc(Cl)cn2)c1Oc1ncc(Cl)cn1 with kochia (Kochia scoparia), please?
Result string: 80

Query string: Any idea what pest or weed control at 125 g/ha came out for N#Cc1cccc(Oc2ncc(Cl)cn2)c1Oc1cnc(Cl)cn1 on kochia (Kochia scoparia)?
Result string: 90

Query string: Identify the measured pest or weed control at 125 g/ha of N#Cc1cccc(Oc2ncc(Cl)cn2)c1Oc1ncc(Br)cn1 for kochia (Kochia scoparia).
Result string: 100

Query string: pest or weed control at 125 g/ha of Fc1cnc(Oc2c(F)ccc(F)c2Oc2ncc(F)cn2)nc1 on kochia (Kochia scoparia)?
Result string: 100

* * *

tested on: large (Lg) crabgrass (Digitaria sanguinalis); assay: Test A postemergence; type: in vivo; conditions: 125 g ai/ha, 0 to 100 scale
measured_endpoint: Plant response rating, Crabgrass, Large
Number, no unit, nothing else.

Query string: // returns reported Plant response rating, Crabgrass, Large for input N#Cc1cccc(Oc2ncc(Cl)cn2)c1Oc1ncc(Cl)cn1
Result string: 90

Query string: Please give the measured Plant response rating, Crabgrass, Large for this compound: Fc1cccc(Oc2ncc(Cl)cn2)c1Oc1ncc(Cl)cn1
Result string: 80

Query string: Suppose we examine the compound N#Cc1cccc(Oc2ncc(F)cn2)c1Oc1ncc(F)cn1 ; what Plant response rating, Crabgrass, Large value has been reported?
Result string: 30

Query string: Dear colleague, I am looking for the recorded Plant response rating, Crabgrass, Large of the following compound: N#Cc1cccc(Oc2ncc(Br)cn2)c1Oc1ncc(Br)cn1
Result string: 60
